Provide the reported pKi of each item.
# target.or.system: Bcl-2-like protein 1 (Homo sapiens)
# Sequence (Q07817 whole entry): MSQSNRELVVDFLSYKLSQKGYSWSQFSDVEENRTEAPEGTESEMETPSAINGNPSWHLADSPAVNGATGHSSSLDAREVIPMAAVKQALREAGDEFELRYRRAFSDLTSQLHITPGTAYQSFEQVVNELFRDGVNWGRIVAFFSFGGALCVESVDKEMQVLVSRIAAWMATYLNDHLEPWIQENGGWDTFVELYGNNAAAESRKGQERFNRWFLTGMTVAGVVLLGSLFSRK
# assay.explanation: Fluorescence Polarization Assay
# stated.conditions: pH 7.4; 25 °C
Give bare numbers, as −log10 of the molar value.

Some solved cases for reference:
COC(=O)[C@H](CC(C)C)NC(=O)c1ccc(C(=O)N(C)C)cc1OC(C)C [terephthalamide scaffold, 34] : 5.50
CC(C)C[C@H](NC(=O)c1ccc(C(=O)N(C(C)C)C(C)C)cc1Oc1ccc2ccccc2c1)C(=O)O [terephthalamide scaffold, 31] : 5.12
COC(=O)[C@H](CC(C)C)NC(=O)c1ccc(C(=O)N(C(C)C)C(C)C)cc1Oc1ccc([N+](=O)[O-])cc1 [terephthalamide scaffold, 32] : 4.88
COC(=O)[C@H](Cc1ccccc1)NC(=O)c1ccc(C(=O)N(C(C)C)C(C)C)cc1OC(C)C [terephthalamide scaffold, 25] : 4.96

Continue with the next compound.
Looking for the measured pKi of COc1cc(C(=O)N(C(C)C)C(C)C)ccc1C(=O)N[C@@H](CC(C)C)C(=O)O [terephthalamide scaffold, 28] , can you help?
5.64

Data provenance: BindingDB's records for doi:10.1021/ja0446404
